# targetSystem: SMARCA2 (Homo sapiens, UniProt P51531)
# Sequence (P51531 whole entry): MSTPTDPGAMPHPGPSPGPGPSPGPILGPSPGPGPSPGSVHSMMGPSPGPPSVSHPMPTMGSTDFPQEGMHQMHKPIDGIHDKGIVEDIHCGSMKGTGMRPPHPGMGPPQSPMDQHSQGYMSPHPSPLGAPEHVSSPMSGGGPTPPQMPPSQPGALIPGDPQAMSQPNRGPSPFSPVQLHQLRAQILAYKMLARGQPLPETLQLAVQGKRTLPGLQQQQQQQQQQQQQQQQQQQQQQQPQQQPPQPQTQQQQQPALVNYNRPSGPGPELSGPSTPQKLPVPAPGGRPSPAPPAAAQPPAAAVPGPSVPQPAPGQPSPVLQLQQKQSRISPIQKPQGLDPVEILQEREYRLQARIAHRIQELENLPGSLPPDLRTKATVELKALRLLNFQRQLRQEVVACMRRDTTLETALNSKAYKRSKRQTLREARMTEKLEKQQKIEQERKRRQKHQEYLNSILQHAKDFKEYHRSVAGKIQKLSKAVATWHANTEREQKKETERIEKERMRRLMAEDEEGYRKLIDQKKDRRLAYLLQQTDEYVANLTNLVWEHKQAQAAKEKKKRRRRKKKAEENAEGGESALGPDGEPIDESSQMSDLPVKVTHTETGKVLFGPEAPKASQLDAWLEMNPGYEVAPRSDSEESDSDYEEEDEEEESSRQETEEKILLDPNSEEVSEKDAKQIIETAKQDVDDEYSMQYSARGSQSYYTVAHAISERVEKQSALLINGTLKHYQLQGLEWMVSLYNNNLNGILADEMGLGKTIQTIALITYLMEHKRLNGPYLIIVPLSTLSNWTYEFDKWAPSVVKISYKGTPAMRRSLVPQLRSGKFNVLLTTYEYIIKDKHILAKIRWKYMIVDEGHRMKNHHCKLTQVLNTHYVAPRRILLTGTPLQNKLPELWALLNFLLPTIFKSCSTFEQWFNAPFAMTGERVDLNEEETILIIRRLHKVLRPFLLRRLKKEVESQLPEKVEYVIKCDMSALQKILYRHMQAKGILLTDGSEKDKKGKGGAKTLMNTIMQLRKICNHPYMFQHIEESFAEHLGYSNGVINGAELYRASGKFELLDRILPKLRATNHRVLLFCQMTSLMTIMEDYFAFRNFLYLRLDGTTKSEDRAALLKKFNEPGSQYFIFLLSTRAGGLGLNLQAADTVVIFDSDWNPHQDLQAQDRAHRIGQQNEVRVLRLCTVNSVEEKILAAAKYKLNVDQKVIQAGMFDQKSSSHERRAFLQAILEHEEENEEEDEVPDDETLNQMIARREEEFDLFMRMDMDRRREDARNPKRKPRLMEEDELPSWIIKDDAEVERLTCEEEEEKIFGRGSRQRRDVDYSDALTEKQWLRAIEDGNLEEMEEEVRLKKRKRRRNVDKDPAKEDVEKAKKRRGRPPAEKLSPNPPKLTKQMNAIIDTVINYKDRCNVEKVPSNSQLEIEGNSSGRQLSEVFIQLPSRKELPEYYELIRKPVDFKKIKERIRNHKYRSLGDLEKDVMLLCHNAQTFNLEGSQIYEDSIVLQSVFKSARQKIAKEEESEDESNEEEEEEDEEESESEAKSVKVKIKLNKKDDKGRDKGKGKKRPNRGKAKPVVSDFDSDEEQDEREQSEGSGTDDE
# testDescription: MSD SMARCA2 degradation in A549 cell line
# Assay type: cell-based
# conditionNotes: A549 cells, 24 h, read-out: SMARCA2 MSD A549 degradation 24 h: Average external-Abs DC50
propertyName: DC50

IN: Please look up its DC50: Cc1ncsc1-c1ccc(CNC(=O)[C@@H]2C[C@@H](O)CN2C(=O)[C@@H](NC(=O)C2(F)CC2)C(C)(C)C)c(O[C@H]2CC[C@H](N3CCC(c4cnc(N5CCc6[nH]c7nnc(-c8ccccc8O)cc7c6[C@@H]5C)nc4)CC3)CC2)c1 (single isomer, unassigned)
OUT: > 100 nM

IN: Please look up its DC50: C#Cc1ccc(CNC(=O)[C@@H]2C[C@@H](O)CN2C(=O)[C@H](NC(=O)N2CC3(CC(N4CCC(c5cnc(N6CCc7[nH]c8nnc(-c9ccccc9O)cc8c7[C@H]6C)nc5)CC4)C3)C2)C(C)(C)CCO)c(Cl)c1 (single isomer, unassigned)
OUT: > 100 nM

IN: Please look up its DC50: C#Cc1ccc(CNC(=O)[C@@H]2C[C@@H](O)CN2C(=O)[C@@H](NC(=O)N2CC3(CC(N4CCC(c5cnc(N6CCc7[nH]c8nnc(-c9ccccc9O)cc8c7[C@H]6C)nc5)CC4)C3)C2)C(C)(C)C)cc1 (single isomer, unassigned)
OUT: < 10 nM

IN: Please look up its DC50: `C#Cc1ccc(CNC(=O)[C@@H]2C[C@@H](O)CN2C(=O)[C@@H](NC(=O)N2CCO[C@@H](CN3CCC(N4CCC(N5CCN6c7cc(-c8ccccc8O)nnc7NC[C@H]6C5)CC4)CC3)C2)C(C)(C)C)cc1`
OUT: > 100 nM

IN: Please look up its DC50: C#Cc1ccc(CNC(=O)[C@@H]2C[C@@H](O)CN2C(=O)[C@@H](NC(=O)[C@H]2CC3(C2)C[C@H](N2CCN(C(=O)CN4CCN5c6cc(-c7ccccc7O)nnc6NC[C@H]5C4)CC2)C3)C(C)(C)C)cc1 (some centres unmarked) [I-240]
OUT: > 100 nM

Continuing:
IN: Please look up its DC50: C#Cc1ccc(CNC(=O)[C@@H]2C[C@@H](O)CN2C(=O)[C@@H](NC(=O)[C@H]2CCC3(CC2)C[C@H](N2CCN(c4cnc(N5CCN6c7cc(-c8ccccc8O)nnc7NC[C@H]6C5)nc4)CC2)C3)C(C)(C)CCO)cc1 (single isomer, unassigned) [I-299]
OUT: < 10 nM

IN: Please look up its DC50: C#Cc1ccc(CNC(=O)[C@@H]2C[C@@H](O)CN2C(=O)[C@@H](NC(=O)[C@H]2CCC3(CC2)C[C@H](N2CCC(c4cnc(N5CCN6c7cc(-c8cccc(Cl)c8O)nnc7NC[C@H]6C5)nc4)CC2)C3)C(C)(C)C)cc1 (single isomer, unassigned) [I-105]
OUT: > 100 nM

IN: Please look up its DC50: `C#Cc1ccc(CNC(=O)[C@@H]2C[C@@H](O)CN2C(=O)[C@@H](NC(=O)N2CCN(CC3CCN([C@H]4CC[C@H](N5CCc6[nH]c7nnc(-c8ccccc8O)cc7c6[C@H]5C)CC4)CC3)CC2)C(C)(C)C)cc1`
OUT: > 100 nM

* * *

Overview of reported DC50 across a group of compounds:
# targetSystem: UniProtKB P51531
# testDescription: MSD SMARCA2 degradation in A549 cell line
# Format: cell-based
# conditionNotes: A549 cells, 24 h, read-out: SMARCA2 MSD A549 degradation 24 h: Average external-Abs DC50

IN: Recorded DC50 for `C#Cc1ccc(CNC(=O)[C@@H]2C[C@@H](O)CN2C(=O)[C@@H](NC(=O)N2CC3(CC(N4CCC(c5cnc(N6CCc7[nH]c8nnc(-c9ccccc9O)cc8c7[C@H]6C)nc5)CC4)C3)C2)C(C)(C)C)c(O)c1` with UniProtKB P51531, please?
OUT: < 0.01 µM

IN: Recorded DC50 for Cc1ncsc1-c1ccc(CNC(=O)[C@@H]2C[C@@H](O)CN2C(=O)C(c2cc(N3CC4(CCC(N5CCC(c6cnc(N7CCc8[nH]c9nnc(-c%10ccccc%10O)cc9c8[C@@H]7C)nc6)CC5)CC4)C3)no2)C(C)C)cc1 (single isomer, unassigned) with UniProtKB P51531, please?
OUT: 0.01 to 0.05 µM

IN: Recorded DC50 for C#Cc1ccc([C@H](C)NC(=O)[C@@H]2C[C@@H](O)CN2C(=O)[C@@H](NC(=O)[C@H]2CCC3(CC2)C[C@H](N2CCN(c4cnc(N5CCN6c7cc(-c8ccccc8O)nnc7NC[C@H]6C5)nc4)CC2)C3)C(C)(C)C)cc1 (single isomer, unassigned) [I-234] with UniProtKB P51531, please?
OUT: 0.05 to 0.1 µM

IN: Recorded DC50 for `C#Cc1ccc(CNC(=O)[C@@H]2C[C@@H](O)CN2C(=O)[C@@H](NC(=O)CN2CCC(N3CC4(CC(N5CCN6c7cc(-c8ccccc8O)nnc7NC[C@H]6C5)C4)C3)CC2)C(C)(C)C)cc1` with UniProtKB P51531, please?
OUT: 0.05 to 0.1 µM

In the following, a different compound is considered.
IN: Recorded DC50 for `C#Cc1cc(F)c(CNC(=O)[C@@H]2C[C@@H](O)CN2C(=O)[C@@H](NC(=O)N2CC3(CC(N4CCC(c5cnc(N6CCc7[nH]c8nnc(-c9ccccc9O)cc8c7[C@H]6C)nc5)CC4)C3)C2)C(C)(C)C)cc1F` with UniProtKB P51531, please?
OUT: 0.01 to 0.05 µM

* * *

# targetSystem: SMARCA2 (Homo sapiens, UniProt P51531)
# testDescription: SMARCA2 Western blot degradation in MV4-11 cells
# Type: cell-based
# Set-up: SMARCA2/SMARCA4 protein degradation selectivity in MV4-11 cells; endogenous in cells; host or cells: MV4-11
# conditionNotes: MV4-11 cells, 24 h; read-out: SMARCA2 MSD MV411 degradation 24 h: Mean external-Abs DC50
propertyName: DC50

IN: Please look up its DC50: Cc1ncsc1-c1ccc(CNC(=O)[C@@H]2C[C@@H](O)CN2C(=O)[C@@H](NC(=O)C2(F)CC2)C(C)(C)C)c(O[C@H]2CC[C@@H](N3CCC(c4cnc(N5CCc6[nH]c7nnc(-c8ccccc8O)cc7c6[C@@H]5C)nc4)CC3)CC2)c1 (single isomer, unassigned)
OUT: 10 to 100 nM

IN: Please look up its DC50: Cc1ncsc1-c1ccc(CNC(=O)[C@@H]2C[C@@H](O)CN2C(=O)C(c2cc(OC[C@H]3CC[C@@H](N4CCC(c5cnc(N6CCc7[nH]c8nnc(-c9ccccc9O)cc8c7[C@H]6C)nc5)CC4)CC3)no2)C(C)C)cc1 (single isomer, unassigned)
OUT: 1 to 10 nM

IN: Please look up its DC50: `C#Cc1ccc(CNC(=O)[C@@H]2C[C@@H](O)CN2C(=O)[C@@H](NC(=O)N2CCN(CC3CCN(c4cnc(N5CCc6[nH]c7nnc(-c8ccccc8O)cc7c6[C@@H]5C)nc4)CC3)CC2)C(C)(C)C)cc1`
OUT: 10 to 100 nM

IN: Please look up its DC50: C#Cc1ccc([C@H](C)NC(=O)[C@@H]2C[C@@H](O)CN2C(=O)C(c2cc(N3CC4(CC(N5CCC(N6CCC(N7CCN8c9cc(-c%10ccccc%10O)nnc9NC[C@H]8C7)CC6)CC5)C4)C3)no2)C(C)C)cc1 (stereo partly shown)
OUT: < 1 nM

* * *

# targetSystem: SMARCA2 (Homo sapiens, UniProt P51531)
# testDescription: SMARCA2 Western blot degradation in MV4-11 cells
# Assay type: cell-based
# Parameters: SMARCA2/SMARCA4 protein degradation selectivity in MV4-11 cells; endogenous in cells; host or cells: MV4-11
# conditionNotes: MV4-11 cells, 24 h; read-out: SMARCA2 MSD MV411 degradation 24 h: Mean external-Abs DC50
Overview of reported DC50 across a group of compounds:

These solved cases illustrate the format of a correct answer.
IN: Recorded DC50 for C#Cc1ccc([C@H](C)NC(=O)[C@@H]2C[C@@H](O)CN2C(=O)C(c2cc(N3CCC(CN4CCC(N5CCC(N6CCN7c8cc(-c9ccccc9O)nnc8NC[C@H]7C6)CC5)CC4)CC3)no2)C(C)C)c(Cl)c1 (stereo partly shown) with SMARCA2 (Homo sapiens, UniProt P51531), please?
OUT: > 100 nM

IN: Recorded DC50 for `C#Cc1ccc(CNC(=O)[C@@H]2C[C@@H](O)CN2C(=O)[C@@H](NC(=O)N2CC3(CC(N4CCC(c5cnc(N6CCc7[nH]c8nnc(-c9ccccc9O)cc8c7[C@@H]6CO)nc5)CC4)C3)C2)C(C)(C)C)cc1` with SMARCA2 (Homo sapiens, UniProt P51531), please?
OUT: 1 to 10 nM

IN: Recorded DC50 for Cc1ncsc1-c1ccc(CNC(=O)[C@@H]2C[C@@H](O)CN2C(=O)[C@@H](NC(=O)[C@H]2CCC3(CC2)C[C@H](N2CCC4(CC2)CN(C(=O)N2CCN5c6cc(-c7ccccc7O)nnc6NC[C@H]5C2)CCO4)C3)C(C)(C)C)cc1 (single isomer, unassigned) [I-93] with SMARCA2 (Homo sapiens, UniProt P51531), please?
OUT: 10 to 100 nM

IN: Recorded DC50 for `C#Cc1ccc(CNC(=O)[C@@H]2C[C@@H](O)CN2C(=O)[C@@H](NC(=O)N2CC3(CC(N4CCC(c5cnc(N6CCc7[nH]c8nnc(-c9ccccc9O)cc8c7[C@H]6C)nc5)CC4)C3)C2)C(C)(C)C)c(F)c1` with SMARCA2 (Homo sapiens, UniProt P51531), please?
OUT: 10 to 100 nM

IN: Recorded DC50 for `C#Cc1ccc(CNC(=O)[C@@H]2C[C@@H](O)CN2C(=O)[C@@H](OC(=O)N2CC3(CC(N4CCC(c5cnc(N6CCc7[nH]c8nnc(-c9ccccc9O)cc8c7[C@H]6C)nc5)CC4)C3)C2)C(C)(C)C)cc1` with SMARCA2 (Homo sapiens, UniProt P51531), please?
OUT: 1 to 10 nM

IN: Recorded DC50 for Cc1ncsc1-c1ccc(CNC(=O)[C@@H]2C[C@@H](O)CN2C(=O)[C@@H](NC(=O)[C@H]2CC3(CC[C@H](N4CCN(c5cnc(N6CCc7[nH]c8nnc(-c9ccccc9O)cc8c7[C@H]6C)nc5)CC4)CC3)C2)C(C)(C)C)cc1 (single isomer, unassigned) [I-79] with SMARCA2 (Homo sapiens, UniProt P51531), please?
OUT: 10 to 100 nM

In the following, a different compound is considered.
IN: Recorded DC50 for `C#Cc1ccc(CNC(=O)[C@@H]2C[C@@H](O)CN2C(=O)[C@@H](NC(=O)N2CC3(CC(N4CCC(c5cnc(N6CCc7[nH]c8nnc(-c9ccccc9O)cc8c7[C@H]6C)nc5)CC4)C3)C2)C(C)(C)C)c(OCCCC(=O)O)c1` with SMARCA2 (Homo sapiens, UniProt P51531), please?
OUT: < 1 nM
